Hello, the source for this data is ChEMBL document CHEMBL1201862, in case you need it.

# Test system: MCF7
# ASSAY COMMENT: NCI tumour cell line growth inhibition, 48 h
Calls of active or inactive are those of the source. Cut-off read from the data, not from the text of the source: active = GI50 up to about 1.1 µM and inactive = higher.
Classes used: active, inactive

INSERT INTO measurements (compound, class_label) VALUES
  ('CCOC(=O)/C=C(\C(=O)OCC)n1ccc(=O)n(Cc2cnnn2COCCOC(C)=O)c1=O', 'inactive'),
  ('C=C(C)CC1=C(C(=S)NCCO[Si](C)(C)C(C)(C)C)C(OCC)(OCC)C1=O', 'inactive'),
  ('[N-]=[N+]=NC1=NNC2(C(=O)N1)c1ccccc1-c1ccccc12', 'inactive'),
  ('CN1CCC(OC(=O)Oc2ccccc2)(c2ccccc2)CC1', 'inactive'),
  ('O=C(Nc1c(C(F)(F)F)cc(-c2ccccc2)[nH]c1=O)N1CCOCC1', 'inactive'),
  ('O=c1cc(NNc2cccc(Cl)c2)[nH]c(=O)[nH]1', 'inactive'),
  ('O=P1(c2ccccc2)C(c2ccccc2)CCC1c1ccccc1 (centres undefined)', 'inactive'),
  ('O=C(/C=C/c1ccc(O)cc1)NCCc1ccc(O)cc1', 'inactive'),
  ('CC(C)(O)C1OCC(C2CCC3(C)C4=CCC5C(C)(C)C(O)CCC5(C)C4CCC23C)CC1O (centres undefined)', 'inactive'),
  ('S=C(NCCc1ccccn1)c1nc[nH]c1C(=S)NCCc1ccccn1', 'inactive'),
  ('CCOc1c2ccsc2c(OCC)c2ccsc12', 'inactive'),
  ('OC1CSCCCSCCSCCCSC1', 'inactive'),
  ('CCOC(=O)CNC(=O)NC12CC3CC(CC(C3)C1)C2', 'inactive'),
  ('CC(=O)/C(=C/NC(=S)c1ccncc1)C(=O)Nc1ccccc1C', 'inactive'),
  ('Cc1ccc(S(=O)(=O)NC(=O)OC23COCN2COC3)cc1', 'inactive'),
  ('O=C1C=C/C(=C/[C@H]2SSC=C[C@]23C=CC(=O)C3)C1', 'inactive'),
  ('CCC(C)C1=C(OC(C)=O)[N+]2([O-])Oc3ccc(-c4c(OC(C)=O)c(OC(C)=O)c(-c5ccc(OC(C)=O)cc5)c(OC(C)=O)c4OC(C)=O)cc3OC2(C(C)CC)C(=O)N1OC(C)=O (centres undefined)', 'inactive'),
  ('CCCCCCCCCCCCCCCCNc1nc(=O)n(C2CC(O)C(COP(=O)(O)OC3CC(n4cc(F)c(=O)[nH]c4=O)OC3CO)O2)cc1F (centres undefined)', 'active'),
  ('C=CCc1cccc2cc(C(=O)Nc3ccc(C)cc3)c(=N)oc12', 'inactive'),
  ('O=C(O)c1cc(O)c2c(c1)C([C@@H]1c3cccc(O)c3C(=O)c3c(O)cc(C(=O)O)cc31)c1cccc(O)c1C2=O (some centres undefined)', 'inactive'),
  ('O=C1COC(c2ccccc2O)=NN1CCCN1CCCC1', 'inactive'),
  ('O=c1c2c3c(sc2nc2n1N=C(c1ccc(Br)cc1)CS2)CCCC3', 'inactive'),
  ('C#CCNCC(=O)O', 'inactive'),
  ('Oc1nncc2[nH]c(-c3ccccc3)cc12', 'inactive');
